System: OVCAR-4 ovarian
run_description: NCI tumour cell line growth inhibition, 48 h
Please provide measured log10 TGI for the entries that follow.
Use the decimal logarithm of TGI (µM).

# count of solved cases: 3
compound: Brc1ccc(N=c2nc3ccccn3n3nc(-c4ccccc4)cc23)cc1
subject_of_test: OVCAR-4 ovarian
measured_endpoint: log10 TGI
value_observed: 1.32
//
compound: CO[C@H](C(=O)[C@@H](O)[C@@H](C)O)[C@@H]1Cc2cc3cc(O[C@H]4C[C@@H](O[C@H]5C[C@@H](O)[C@H](O)C(C)O5)[C@H](O)C(C)O4)c(C)c(O)c3c(O)c2C(=O)[C@H]1O[C@H]1C[C@@H](O[C@H]2C[C@@H](O[C@H]3C[C@](C)(O)C(=O)C(C)O3)[C@@H](O)C(C)O2)[C@H](O)C(C)O1 (stereo partly specified)
subject_of_test: OVCAR-4 ovarian
measured_endpoint: log10 TGI
value_observed: 0.85
//
compound: O=CN/C=C/c1cc(O)ccc1O
subject_of_test: OVCAR-4 ovarian
measured_endpoint: log10 TGI
value_observed: 1.51

For each of the compounds below, state log10 TGI.
1. CC(C)CCC[C@@H](C)[C@H]1CC[C@H]2[C@@H]3CC=C4C[C@@H](C(C(=O)O)C(=O)O)CC[C@]4(C)[C@H]3CC[C@]12C
2. COc1nc(N)c(C(=O)CCl)c(=O)n1C

1: 0.64; 2: 1.52

Below are some compounds; for each one, tell me its log10 TGI.
1. Cc1cc(O)c2c(=O)c3ccccc3[nH]c2c1
2. Cc1ccc(C(=O)/C(=C/c2ccc([N+](=O)[O-])cc2)SCc2ccc(Cl)cc2)cc1
3. N#CC1=C(N)N(c2ccccc2)C(c2ccco2)C1(C#N)C#N (stereo unspecified)
4. O=C1CC(c2ccc3c(c2)OCO3)Nc2ccccc21 (stereo unspecified)
5. Clc1cc2nsnc2c(Cl)n1
6. Oc1cccc2c(Cl)ccnc12
7. O=C(CC1(O)C(=O)Nc2c(Cl)cc(Cl)cc21)c1ccc(Br)cc1Br (stereo unspecified)

1. 1.88
2. 0.80
3. 1.69
4. 1.75
5. 1.50
6. 0.87
7. 1.47

Hi team, please reply with log10 TGI for each item in this list.
1. CCN(CC)CCC(=O)Nc1ccc2c(c1)C(=O)c1ccc(NC(=O)CCN(CC)CC)cc1C2=O
2. Cc1cccc2c(=O)cc(-c3ccccc3)[nH]c12
3. Cn1cnc([N+](=O)[O-])c1Sc1nnc(-c2cccnc2)n1C
4. CC1=C(C(=O)Nc2ccc(Cl)c(Cl)c2)C(c2cccc(Oc3ccccc3)c2)NC(=S)N1 (stereo unspecified)
5. C=C1c2nc3ccccc3n2C=C(c2ccccc2)N1c1ccc([N+](=O)[O-])cc1

1.28
1.55
1.75
1.22
0.36
